Tested on: Citrus
Assay: Induction of resistance against Phytophthora citrophthora in Citrus (tangelo Nova) fruits assessed as increase of polymethoxyflavones levels at 20 to 250 ppm up to 160 days
Type: functional
The source made the active and inactive calls. The rule behind the calls is not given here.

[
  {
    "SMILES_DATA": "COc1ccc(-c2cc(=O)c3c(OC)c(OC)c(OC)c(OC)c3o2)cc1",
    "Activity": "Active"
  },
  {
    "SMILES_DATA": "COc1ccc(-c2oc3c(OC)c(OC)c(OC)c(OC)c3c(=O)c2OC)cc1OC",
    "Activity": "43%"
  },
  {
    "SMILES_DATA": "COc1ccc(-c2cc(=O)c3c(OC)c(OC)c(OC)cc3o2)cc1OC",
    "Activity": "Active"
  },
  {
    "SMILES_DATA": "COc1ccc(-c2cc(=O)c3c(OC)c(OC)c(OC)c(OC)c3o2)cc1OC",
    "Activity": "Active"
  }
]
